Items are presented alongside their recorded melting point.

Recorded results for 5 molecules are shown here.
CC(C)C[C@H](C(=O)O)N1CC[C@]2(CCCN2C(=O)C(C)C)C1=O	68 to 69 °C
CCc1[nH]n(C2CCCC2)c2nc(Cc3ccc(OCc4nnn[nH]4)cc3)nc(=O)c1-2	240 to 242 °C
Cc1[nH]c(C(=O)NCCCN(C)C)c(C)c1-c1nc2ccc(C(=O)c3ccccc3)cc2[nH]1	238 to 248 °C
CC(C)c1oc(-c2ccccc2)nc1CC(=O)O	141 to 143 °C
O=[N+]([O-])CS(=O)(=O)c1ccccc1C(F)(F)F	80 °C

INPUT: Indicate the recorded melting point value for this molecule: C=C1[C@H](C(=O)OC)[C@H]1C(=O)OC
OUTPUT: 34.1 to 34.9 °C

INPUT: Complete the entry with melting point for CCc1noc(C(=O)Nc2ccccc2)c1C(=O)O
OUTPUT: 150 to 152 °C

INPUT: Note down melting point recorded for Cc1cc(C)c2ccc(N)nc2n1
OUTPUT: 215 to 220 °C

INPUT: Item CO[C@H]1CN(c2c(F)c(N)c3c(=O)c(C(=O)O)cn(C4CC4)c3c2F)C[C@H]1N (relative stereo) : provide melting point
OUTPUT: 222 to 223 °C

INPUT: Find the measured melting point of Cn1nc(-c2c(F)cccc2Cl)nc1-c1ccc(Oc2ccc(C(F)(F)F)cn2)c(Cl)c1 and report it.
OUTPUT: 116 to 117 °C
